target system: Fe(3+)-pyochelin receptor (Pseudomonas aeruginosa (strain ATCC 15692 / PAO1 / 1C / PRS 101 / LMG12228), UniProt P42512)
Sequence (P42512 whole entry): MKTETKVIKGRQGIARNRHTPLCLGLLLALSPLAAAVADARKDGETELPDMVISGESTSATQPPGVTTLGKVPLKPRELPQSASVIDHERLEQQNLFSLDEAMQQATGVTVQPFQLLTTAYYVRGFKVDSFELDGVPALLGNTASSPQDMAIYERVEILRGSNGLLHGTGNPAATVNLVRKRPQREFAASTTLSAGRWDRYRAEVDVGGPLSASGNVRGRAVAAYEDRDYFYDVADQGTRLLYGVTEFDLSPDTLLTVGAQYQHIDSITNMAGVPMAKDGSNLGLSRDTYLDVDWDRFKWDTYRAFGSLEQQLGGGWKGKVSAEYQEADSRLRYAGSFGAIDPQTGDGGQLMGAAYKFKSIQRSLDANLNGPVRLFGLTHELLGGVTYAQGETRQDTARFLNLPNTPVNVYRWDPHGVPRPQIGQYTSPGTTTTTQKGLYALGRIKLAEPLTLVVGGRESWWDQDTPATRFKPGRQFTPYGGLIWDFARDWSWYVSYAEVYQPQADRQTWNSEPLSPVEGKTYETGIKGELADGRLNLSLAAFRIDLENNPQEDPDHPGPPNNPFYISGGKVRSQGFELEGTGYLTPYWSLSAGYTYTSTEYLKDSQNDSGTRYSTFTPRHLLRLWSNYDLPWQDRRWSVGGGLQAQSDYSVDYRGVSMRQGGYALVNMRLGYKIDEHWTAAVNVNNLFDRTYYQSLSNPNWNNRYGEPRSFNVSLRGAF
protocol notes: Displacement of Pch-55Fe(III) from Pseudomonas aeruginosa PAD07 FptA after 1 hr in presence of CCCP
recorded conditions: read-out: Ki
pKi: −log10 of the molar value.
Answer NOT MET if pKi is under 8, and MET if it is 8 or more.

molecule: COc1ccc(F)cc1-c1nc(C2SC[C@@H](C(=O)O)N2C)cs1 (mixture of isomers)
assigned label: NOT MET
//
molecule: CN1[C@@H]([C@H]2CSC(c3ccccc3O)=N2)SC[C@H]1C(=O)O
assigned label: MET
//
molecule: COc1ccc(N)cc1-c1nc(C2SC[C@@H](C(=O)O)N2C)cs1 (mixture of isomers)
assigned label: NOT MET

---

target system: Fe(3+)-pyochelin receptor (Pseudomonas aeruginosa (strain ATCC 15692 / PAO1 / 1C / PRS 101 / LMG12228))
protocol notes: Displacement of Pch-55Fe(III) from Pseudomonas aeruginosa PAD07 FptA after 1 hr in presence of CCCP
recorded conditions: read-out: Ki
A collection of molecules and their measured Ki

molecule: CN1C(c2csc(-c3ccc(O)cc3O)n2)SC[C@H]1C(=O)O (mixture of isomers)
Ki: 6.5 nM
//
molecule: CN1C(c2csc(-c3ccc(N)cc3O)n2)SC[C@H]1C(=O)O (mixture of isomers)
Ki: 11.3 nM
//
molecule: CN1[C@@H](c2csc(-c3ccccc3O)n2)SC[C@H]1C(=O)O
Ki: 9.8 nM
